# target system: T1, hPDGFRb.mmh (human, UniProt P09619 33-531)
# T1 construct: Soluble monomeric construct; also called soluble human PDGFR-beta.mmh
# T1 sequence (P09619 other isoform, or with tags, fused parts or gaps): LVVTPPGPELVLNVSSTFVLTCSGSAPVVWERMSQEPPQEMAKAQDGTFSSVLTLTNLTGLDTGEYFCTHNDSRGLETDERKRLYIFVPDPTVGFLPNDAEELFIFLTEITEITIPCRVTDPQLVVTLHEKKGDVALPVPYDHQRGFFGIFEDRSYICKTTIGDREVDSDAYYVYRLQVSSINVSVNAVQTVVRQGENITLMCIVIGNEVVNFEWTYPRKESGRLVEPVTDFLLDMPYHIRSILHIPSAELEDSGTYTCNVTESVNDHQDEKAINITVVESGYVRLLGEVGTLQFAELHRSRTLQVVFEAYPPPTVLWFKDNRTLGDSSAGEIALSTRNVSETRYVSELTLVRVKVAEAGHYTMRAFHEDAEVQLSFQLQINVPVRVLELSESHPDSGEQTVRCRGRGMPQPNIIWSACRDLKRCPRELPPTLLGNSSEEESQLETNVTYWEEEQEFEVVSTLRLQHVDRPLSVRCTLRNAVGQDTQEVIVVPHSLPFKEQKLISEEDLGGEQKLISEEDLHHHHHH
# assay remarks: SPR, mAb captured, 37 C
pKd: −log10 of the molar value.
Listed below: pKd values for each entry.
measure: pKd

H2M3368N (antibody, V domains shown, mouse Fc (H2M prefix; isotype not spelled out)) VH: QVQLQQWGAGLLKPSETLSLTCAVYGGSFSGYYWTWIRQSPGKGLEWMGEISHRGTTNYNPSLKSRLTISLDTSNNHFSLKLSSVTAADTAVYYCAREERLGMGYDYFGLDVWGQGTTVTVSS VL: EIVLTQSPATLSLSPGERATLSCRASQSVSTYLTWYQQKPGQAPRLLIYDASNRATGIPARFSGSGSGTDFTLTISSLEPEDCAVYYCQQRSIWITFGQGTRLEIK: 8.21
H1M3374N (antibody, V domains shown, mouse Fc format; also called H2M3374N) VH: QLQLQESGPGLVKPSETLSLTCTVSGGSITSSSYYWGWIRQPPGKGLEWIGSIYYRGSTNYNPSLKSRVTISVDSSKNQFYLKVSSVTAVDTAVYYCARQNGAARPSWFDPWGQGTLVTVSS VL: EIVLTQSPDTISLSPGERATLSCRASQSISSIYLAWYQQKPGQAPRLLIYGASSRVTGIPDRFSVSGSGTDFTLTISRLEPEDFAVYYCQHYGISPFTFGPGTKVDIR: 8.77
H4H3374N (antibody, human IgG4, V domains shown, human IgG4 Fc (H4H prefix)) VH: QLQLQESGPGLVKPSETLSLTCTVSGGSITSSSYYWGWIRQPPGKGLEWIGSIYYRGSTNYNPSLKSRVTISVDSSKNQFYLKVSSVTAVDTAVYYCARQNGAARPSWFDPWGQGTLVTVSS VL: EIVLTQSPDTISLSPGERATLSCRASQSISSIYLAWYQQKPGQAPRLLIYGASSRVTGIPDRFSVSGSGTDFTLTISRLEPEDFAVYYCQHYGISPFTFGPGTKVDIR: 8.74
